System: Poly-(dA.dT)2
Assay: DNA binding studies (ΔTm)
Settings: DNA affinity
Protocol: The DNA binding studies and both the in vitro and in vivo antiprotozoan studies were performed as described by Ismail. M. A., et al., J. Med. Chem., 46, 4761-4769 (2003), which is incorporated herein by reference in its entirety. Table 1 contains the results from the DNA binding studies for the new diamidines and the in vitro results for the compounds tested against T. b. r. and P. f. […] As a representative example of this class of compounds, compound 12 was evaluated and gave a ΔTm value of only 0.3.

[
  {
    "Molecule": "Cc1cc(C(=N)N)cn2cc(-c3cccc(-c4ccc(C(=N)N)cc4)c3)nc12 [Compound 14c]",
    "ΔTm Poly-(dA.dT)2": "> 27 °C"
  },
  {
    "Molecule": "N=C(N)c1ccc(-c2cccc(-c3cn4cc(C(=N)N)ccc4n3)c2)cc1 [Compound 14b]",
    "ΔTm Poly-(dA.dT)2": "> 27 °C"
  },
  {
    "Molecule": "Cc1cc(C(=N)N)cn2cc(-c3ccc(-c4ccc(C(=N)N)cc4)o3)nc12 [Compound 8b]",
    "ΔTm Poly-(dA.dT)2": "> 27 °C"
  }
]
